These measurements were taken from ChEMBL document CHEMBL5113552.

Give IC50 for every item shown.
target: UniProtKB O95544; assay: Inhibition of NADK (unknown origin) by HPLC analysis

Input line: Look up IC50 of Oc1cc(O)c2c(c1)O[C@H](c1cc(O)c(O)c(O)c1)[C@H](O)C2 [EPIGALLOCATECHIN] and report it.
Output line: > 100 µM

Input line: Report measured IC50; entry is Oc1cc(O)c2c(c1)O[C@@H](c1cc(O)c(O)c(O)c1)[C@H](O)C2 [(-)-GALLOCATECHIN]
Output line: > 100 µM

====

target: NAD kinase (Homo sapiens); test: Inhibition of NADK delta 95 kinase domain (unknown origin) at 80 uM measured after 30 mins by […]
Sequence (O95544 whole entry, the tested form may be a part): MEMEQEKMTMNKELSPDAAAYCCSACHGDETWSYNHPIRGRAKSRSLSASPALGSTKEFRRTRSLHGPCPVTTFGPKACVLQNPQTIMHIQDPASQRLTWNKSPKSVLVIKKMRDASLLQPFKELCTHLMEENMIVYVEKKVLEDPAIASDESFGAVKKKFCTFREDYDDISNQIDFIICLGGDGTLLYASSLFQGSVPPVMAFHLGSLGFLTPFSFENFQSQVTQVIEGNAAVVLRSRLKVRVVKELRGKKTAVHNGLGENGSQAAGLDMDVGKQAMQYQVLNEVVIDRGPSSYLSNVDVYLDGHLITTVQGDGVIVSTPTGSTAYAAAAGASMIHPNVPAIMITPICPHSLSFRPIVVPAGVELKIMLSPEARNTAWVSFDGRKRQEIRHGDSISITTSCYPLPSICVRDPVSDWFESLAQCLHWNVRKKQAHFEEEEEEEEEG
outcomeMeasure: IC50 (nM)
Give just the numeric value; nM need not be written.

Input line: For O=C(O[C@@H]1Cc2c(O)cc(O)cc2O[C@@H]1c1cc(O)c(O)c(O)c1)c1cc(O)c(O)c(O)c1 [EPIGALOCATECHIN GALLATE] , write its IC50.
Output line: 960

====

Kindly supply the reported pKi values for the records listed here.
target: NAD kinase (Homo sapiens); assay: Inhibition of human NADK by HPLC analysis
Notebook: values listed as pKi are -log10 of the concentration (mol/L).

Input line: Return the recorded pKi value; entry: Nc1ncnc2c1nc(Br)n2[C@@H]1O[C@H](CSSC[C@H]2O[C@@H](n3c(Br)nc4c(N)ncnc43)[C@H](O)[C@@H]2O)[C@@H](O)[C@H]1O
Output line: 5.22

Input line: Return value of pKi for input Nc1ncnc2c1ncn2[C@@H]1O[C@H](CSSC[C@H]2O[C@@H](n3c(Br)nc4c(N)ncnc43)[C@H](O)[C@@H]2O)[C@@H](O)[C@H]1O , no commentary.
Output line: 5.22

Input line: Determine its reported pKi: Nc1ncnc2c1ncn2[C@@H]1O[C@H](CSSC[C@H]2O[C@@H](n3cnc4c(N)ncnc43)[C@H](O)[C@@H]2O)[C@@H](O)[C@H]1O
Output line: 4.35

====

target: NAD kinase (Homo sapiens); experiment: Non-competitive inhibition of N-terminal full length NADK (unknown origin) expressed in Escherichia coli BL21(DE3) cells by enzymatic activity assay
outcomeMeasure: pKi
Friendly reminder that pKi comes from taking -log10 of the concentration in mol/L.

Input line: In one line, give reported pKi of the entry O=C(O[C@@H]1Cc2c(O)cc(O)cc2O[C@@H]1c1cc(O)c(O)c(O)c1)c1cc(O)c(O)c(O)c1 [EPIGALOCATECHIN GALLATE] .
Output line: 5.48
